Overview of reported log10 of TGI across a group of compounds:
# Tested on: MOLT-4 leukemia
# runDescription: NCI tumour cell line growth inhibition, 48 h
# values: log10(TGI), units µM

[[record]]
compound = "O=C(Nc1ccc(F)cc1F)c1cc(Br)ccc1O"
experimentaltarget = "MOLT-4 leukemia"
assayresult = 1.09

[[record]]
compound = "Cc1cc(NCCCCCCCCCC[n+]2c(C)cc(N)c3ccccc32)c2ccccc2n1"
experimentaltarget = "MOLT-4 leukemia"
assayresult = 0.72

[[record]]
compound = "CCCN1CCN(c2ccc3nc(-c4ccc5nc(-c6cc(OC)ccc6OC)[nH]c5c4)[nH]c3c2)CC1"
experimentaltarget = "MOLT-4 leukemia"
assayresult = 0.63

[[record]]
compound = "COc1cc2c(cc1OCCCCCCN1CCN(c3ncnc4ccccc34)CC1)N=CC1CCCN1C2=O (centres undefined)"
experimentaltarget = "MOLT-4 leukemia"
assayresult = -0.69


Could you now consider this next compound?
IN: What log10 of TGI value was documented for this compound, `c1cn2cc(-c3ccc4ncn(C5CCCCC5)c4c3)nc(-c3ccc4c(c3)ncn4C3CCCCC3)c2n1` ?
OUT: 0.72

###

# Tested on: IGROV1 ovarian
# runDescription: NCI tumour cell line growth inhibition, 48 h
metricName: TGI

[[record]]
molecule = "CCOC(=O)[C@@H]1ON2O[C@H](OC3CCCC3(c3ccccc3)c3ccccc3)C[C@H]3OC(=O)[C@@H]1C32 (stereo partly drawn)"
assayresult = "> 100 µM"

[[record]]
molecule = "Cc1cc(I)cc(CN(C)CCN2CCCC2)c1O"
assayresult = "53.8 µM"

[[record]]
molecule = "COc1cc(NP(=O)(Oc2ccccc2)Oc2ccccc2)ccc1Nc1c2ccccc2nc2c1[nH]c1ccccc12"
assayresult = "> 100 µM"


Could you now consider this next molecule?
IN: What TGI value was documented for this molecule, `O=[N+]([O-])c1ccc2[nH]ncc2c1Cl` ?
OUT: 39.1 µM

###

# Test system: RPMI-8226 leukemia
# runDescription: NCI tumour cell line growth inhibition, 48 h
metricName: TGI

Example results:
[[record]]
smilesinput = "CC1=C(C(=O)NCCc2ccccc2)CC(C(=O)NCCc2ccccc2)=C(C)N1"
assayresult = "> 100 µM"

[[record]]
smilesinput = "O=C1c2cc([N+](=O)[O-])ccc2-c2cccc(F)c21"
assayresult = "> 100 µM"


Could you now consider this next molecule?
IN: Recall the recorded TGI for `Nc1cn(Cc2ccccc2)c2nc(/C=C3/C=CC=CC3=O)c(O)n12` with RPMI-8226 leukemia and state it.
OUT: > 100 µM

###

# Test system: OVCAR-4 ovarian
# runDescription: NCI tumour cell line growth inhibition, 48 h
metricName: TGI

Example results:
[[record]]
molecule = "COC(=O)C12C3C4C5C3(C#N)C1C5(C(=O)OC)C42C(=O)N(C(C)C)C(C)C (centres undefined)"
assayresult = "> 100 µM"

[[record]]
molecule = "CC(=O)N/C(=C\\c1cccc([N+](=O)[O-])c1)c1nc2c3c(ccc2[nH]1)C(=O)c1ccccc1C3=O"
assayresult = "> 100 µM"

[[record]]
molecule = "C=CCC(C(=O)O)c1ccccc1 (centres undefined)"
assayresult = "> 100 µM"

[[record]]
molecule = "COc1ccc2c(c1)OC1=C(C(=O)OC1)C2c1cc(OC)c(OC)c(OC)c1 (centres undefined)"
assayresult = "> 100 µM"

[[record]]
molecule = "C[C@]12CC[C@H](OCCC#N)CC1=CC[C@@H]1C2CC[C@]2(C)/C(=N/OCCC#N)CCC12 (some centres undefined)"
assayresult = "97.7 µM"


IN: What TGI value was documented for this molecule, `CCn1c(O)c(C=N)c(=O)n(CC)c1=O` ?
OUT: > 100 µM

IN: What TGI value was documented for this molecule, `O=C1C(=O)c2ccccc2C(O)=C1CN(CCCl)CCCl` ?
OUT: > 100 µM

IN: What TGI value was documented for this molecule, `CC1(C)CC(n2cnc(-c3ccc(F)cc3)c2-c2ccnc(N)n2)CC(C)(C)N1` ?
OUT: > 25 µM

IN: What TGI value was documented for this molecule, `O=[N+]([O-])c1ccc(Nc2nc3ccccc3s2)cc1` ?
OUT: > 100 µM
